Endpoint Label: melting point

Look at this compound and give its reported melting point. NC(=NO)c1cccs1
81 to 83 °C

Need melting point of CCOC(=O)c1c(N)sc2c1CCCS2=O (centres undefined) , thanks.
189 to 191 °C

Reported melting point for CC(=O)Nc1cc(F)c(S(=O)(=O)Cl)cc1Cl : what is it?
163 to 165 °C

Sample CNc1cn[nH]c(=O)c1 — what was its melting point?
279 to 281 °C

Would you mind telling me what melting point value was observed for Nc1nnc(-c2ccc(F)cc2F)o1 ?
232 to 234 °C

Suppose we examine the compound COc1ccc(NC(=O)CCCl)c([N+](=O)[O-])c1 ; what melting point value has been reported?
97 to 99 °C

Fill blank: measured melting point of the compound O=C(O)c1ccc2c(c1)CCC2 is ____.
173 to 175 °C

Name the recorded melting point for COc1cc(C=O)ccc1OCc1c(C)cc(C(C)(C)C)cc1C .
139 to 141 °C

// melting point lookup, key: N#Cc1cc(N)cnc1N
129 to 131 °C

----------
Endpoint Label: melting point

Please look up its melting point: Cc1cc(C)c2cc(C(=O)O)[nH]c2c1C
227 to 229 °C

Look at this compound and give its reported melting point. Brc1cnc2c(c1)NCCO2
149 to 151 °C

melting point for O=C(Nc1cccc2cnccc12)OCC(F)(F)F ?
181 to 183 °C

Requested field: melting point. Item: COc1ccc(C)cc1-n1nnnc1S
164 to 166 °C

Query: melting point; subject: CC(=O)c1cc(F)c(N)c(F)c1
69 to 71 °C

Would you kindly share the measured melting point for CCc1ccc(C(N)=NO)cc1 ?
160 to 162 °C

Entry COc1ccc(Br)c(S(N)(=O)=O)c1 has what melting point?
119 to 121 °C

Returns the measured melting point for the input compound. Input: O=Cc1ccc(OCc2ccncc2)cc1
112 to 114 °C

I have this compound here, Cc1ccc(NC(=O)C=NO)cc1 , and I need its recorded melting point.
145 to 147 °C

Fill in: melting point of O=C(O)CNc1cccc(C(F)(F)F)c1 is ___
123 to 125 °C

Quick one: melting point for Cc1ccc(N2CC(C(=O)O)CC2=O)c(F)c1 (stereo not given) ?
112 to 114 °C

Returns the measured melting point for the input compound. Input: Nc1c(C(=O)O)cc([N+](=O)[O-])cc1[N+](=O)[O-]
266 to 268 °C

GET /values?readout=melting point&item= Cc1ccc(N)c(C(=O)N(C)C)c1
98 to 100 °C

Given CNC(=O)CC(N)=S , state its recorded melting point.
133 to 135 °C

Name the reported melting point value associated with the compound COc1ccc(CCCC(=O)O)cc1F
63 to 65 °C

----------
Assign melting point to each entry below.

If you can, please state the reported melting point value of Nc1ccc(N2C(=O)c3ccccc3C2=O)c(Cl)c1 .
204 to 206 °C

Which melting point reading was recorded for the molecule O=C(O)C(F)(F)c1ccc(Cl)c(Cl)c1 ?
109 to 111 °C

Field request: melting point | item: CCn1c2ccccc2c2cc(N=C=S)ccc21
118 to 120 °C

Look at this molecule and give its reported melting point. Brc1cnn(-c2ccncc2)c1
125 to 127 °C

Quick one: melting point for O=C(O)c1cnc2cc3c(cc2c1O)OCCO3 ?
274 to 276 °C

Return reported melting point; argument: COc1ccccc1CC(C)(C)C(=O)O
44 to 46 °C

Quick one: melting point for O=[N+]([O-])c1cc(Cl)ccc1S(=O)(=O)Cl ?
74 to 76 °C

Return reported melting point; argument: COC(=O)c1cc(N)ccc1C
38 to 40 °C

I am curious: what melting point value has been reported for CN(C)S(=O)(=O)c1ccc(Br)c(C(=O)O)c1 ?
174 to 176 °C

# get_value(readout='melting point', item= COc1cccc(-n2c(S)nc(O)cc2=O)c1 )
197 to 199 °C

----------
Can you tell me melting point for the items I'm about to list?

Can you look up the measured melting point of Cn1c(=O)c2[nH]c(Br)nc2n(C)c1=O for me?
299 to 301 °C

For the compound shown here, O=[N+]([O-])c1cc2c(cc1Br)OCCO2 , give the reported melting point.
167 to 169 °C

I would be grateful if you could share the reported melting point for CN(CC(=O)O)S(N)(=O)=O .
94 to 96 °C

Endpoint output: melting point of CC(C)c1c(C(=O)O)cnn1-c1ccc(C(F)(F)F)cn1 . Value?
168 to 170 °C

Reported melting point for CCCNC(=O)NC(=O)CCl : what is it?
119 to 121 °C

Data request, read-out melting point, for ClCc1ccc(-n2cccn2)cc1
57 to 59 °C

Looking for the measured melting point of O=C(O)c1cnn(-c2ccccc2)c1 , can you help?
175 to 182 °C

Looking for the measured melting point of N#Cc1c(N)sc2c1-c1ccccc1CC2 , can you help?
166 to 168 °C

If you can, please state the reported melting point value of COC(=O)Cc1c(C(=O)OC)sc2nc(CCl)[nH]c(=O)c12 .
208 to 210 °C

What does the data say about its melting point? Entry: Cc1[nH]c(-c2ccccn2)nc(=NN)c1C
182 to 184 °C

Query: melting point; subject: COc1cc(C=O)ccc1OCC(=O)N1CCOCC1
98 to 100 °C

Could you tell me which melting point is on file for O=C(O)c1ccccc1NS(=O)(=O)c1ccc(F)cc1 ?
165 to 167 °C

// query melting point value for entry Cn1c(=O)c2c(=O)cc(N)[nH]c2n(C)c1=O
316 to 318 °C

What does the data say about its melting point? Entry: Nc1cnc(Cl)c(C(=O)O)c1
193 to 195 °C

So what does the record say about melting point for Cc1ccc2c(CC#N)c[nH]c2c1 ?
115 to 117 °C

So what's the measured melting point for this one? Nc1ccc2c(c1)OCC(=O)N2
217 to 219 °C

Would you kindly share the measured melting point for CC(C)(C)OC(=O)N1CCOCC1C#N (stereo not drawn) ?
95 to 97 °C

What measured melting point goes with CC(C)c1noc(N)n1 ?
101 to 103 °C

----------
Endpoint Label: melting point

Record request: melting point value, item COC(=O)c1nc(Cl)c2ccccc2c1OC
103 to 105 °C

What does the record list as melting point for CCS(=O)(=O)N1CCC(C(=O)O)(c2ccccc2)CC1 ?
203 to 205 °C

Query (molecule): CCOC(=O)c1c(C)oc(N)c1C#N ; field requested: melting point
98 to 100 °C

Item NC(=S)NCc1ccc(OC(F)(F)F)cc1 has what recorded melting point?
120 to 122 °C

Fill blank: measured melting point of the molecule Cc1cc(Br)cc([N+](=O)[O-])c1O is ____.
89 to 91 °C

// returns reported melting point for input CC(=O)c1ccc(OC2CCCCC2)c(F)c1
48 to 50 °C

I have this molecule here, CON(C)S(=O)(=O)c1cc(N)ccc1Cl , and I need its recorded melting point.
88 to 90 °C

State the recorded melting point for this entry: O=C(O)C1CCCCC1C(=O)N1CCc2ccccc21 (stereo not given)
123 to 125 °C

Quick check: melting point of COc1ccc2[nH]c3c(c2c1)C(=O)CCC3 ?
269 to 271 °C

Name the recorded melting point for O=C(CO)NC1CCCc2ccccc21 (stereo not given) .
114 to 116 °C

Endpoint output: melting point of c1cnn(-c2ccc(N3CCNCC3)nn2)c1 . Value?
161 to 163 °C

What value of melting point has been recorded for this entry: O=C(O)c1ccc(S(=O)(=O)c2ccccc2)s1
192 to 194 °C

If you can, please state the reported melting point value of CCCOc1cccc(C(=O)O)c1 .
73 to 75 °C

Item under review: N#Cc1cccc(NC(=O)CC2CC2)c1 . Reported melting point?
89 to 91 °C

May I ask what melting point has been recorded for CC(C)(C)C(O)C(=O)O (stereo not given) ?
65 to 67 °C

I have this molecule here, OC(CC1COCCN1)c1cccs1 (stereo not given) , and I need its recorded melting point.
109 to 111 °C

I would be grateful if you could share the reported melting point for CC(=O)c1ccn(S(=O)(=O)c2ccc(C)cc2)c1 .
83 to 85 °C

// melting point lookup, key: O=C(Nc1cccc(Br)c1)c1cccc(S(=O)(=O)N2CCCCCC2)c1
149 to 151 °C

Query (molecule): O=C(CCl)NC(=O)NC12CC3CC(CC(C3)C1)C2 ; field requested: melting point
169 to 171 °C

For the molecule Cc1onc(-c2cccc(Br)c2)c1C(=O)O , what melting point is on record?
169 to 171 °C

----------
Assignment: determine reported melting point for the given compounds.

What value of melting point has been recorded for this entry: COc1ccc(S(=O)(=O)Cl)cc1C
51 to 53 °C

Which melting point is reported for this compound? COC(=O)c1cc(N)cc(C(F)(F)F)c1
78 to 80 °C

Could you tell me which melting point is on file for Nc1ccc(Cl)c(S(=O)(=O)N2CCCCC2)c1 ?
92 to 96 °C

// query melting point value for entry OC(c1ccc[nH]1)C(F)(F)F (stereo not drawn)
47 to 49 °C

Item under review: O=C(O)c1cc(Cl)cc([N+](=O)[O-])c1 . Reported melting point?
146 to 148 °C

# input compound: Cc1ccc(-c2cc(CBr)on2)cc1 ; wanted: its melting point
86 to 88 °C

So what's the measured melting point for this one? Cc1cc(Cl)ccc1OCCCC(=O)NN
37 to 39 °C

So what does the record say about melting point for CC(Cl)C(=O)c1ccc(Br)cc1 (stereo not drawn) ?
54 to 56 °C

Param item = O=C(O)CCC(=O)NCC(=O)c1ccc(F)cc1F ; retrieve measured melting point.
173 to 175 °C

Entry O=C(O)c1oc2ccccc2c1CSC1=NCCS1 : reported melting point = ?
190 to 192 °C

# melting point lookup, item CN(C(=O)CSc1ccccc1C(=O)O)C1CCCCC1
102 to 104 °C

Which melting point is listed for Cc1n[nH]c(-c2ccccc2I)n1 ?
154 to 156 °C

What value of measured melting point is listed for Cc1cnc(N)nc1 ?
194 to 196 °C

Quick one: melting point for C#CCOc1ncccc1C(=O)O ?
120 to 122 °C

melting point for COc1cc(C2(C(=O)O)CC2)ccc1C ?
127 to 129 °C

Find the recorded melting point belonging to Cc1ccc(S(=O)(=O)NCc2ccco2)cc1C(=O)O and report it.
178 to 180 °C

What measured melting point goes with Cn1cc(C2CC2C(=O)O)cn1 (stereo not drawn) ?
138 to 140 °C

Look up melting point for this compound: c1ccc(OC2CCNCC2)cc1
34 to 36 °C

Look at this compound and give its reported melting point. COC(=O)C(=CN(C)C)C(C)=O
47 to 49 °C

Fill in: melting point of CCOC(=O)c1cnc2cc(Br)ccc2c1O is ___
329 to 331 °C

Reported melting point, compound COC(=O)c1cccc(OCC(F)(F)F)c1 : ____
56 to 58 °C

Record request: melting point value, item COc1ccc(C(=O)Oc2ccc(C=O)cc2OC)cc1
95 to 98 °C

Any idea what melting point was measured for CC1(c2cccc(-n3cnnn3)c2)NC(=O)NC1=O (stereo not drawn) ?
190 to 192 °C

Find the recorded melting point belonging to CC(=O)c1cccc(OCc2cc(C(=O)O)no2)c1 and report it.
169 to 171 °C

Would you mind telling me what melting point value was observed for O=C(O)C1CC(=O)N(c2cccc(C(F)(F)F)c2)C1 (stereo not drawn) ?
102 to 104 °C

Can you share its melting point? I mean this compound: O=C(O)CSc1cccc(C(F)(F)F)c1
19 to 21 °C

For O=C1CN(C(=O)CCl)c2ccccc2N1 , what is its reported melting point?
114 to 119 °C

Form field: reported melting point of Cc1nc2ccccc2n1CCN
235 to 237 °C

I'd like to know its melting point. The compound in question is CC(C)(C)C(=O)Nc1ccc(C(=O)CCl)cc1
132 to 134 °C

Field request: melting point | item: Clc1cc(Cl)nc(-c2ccccn2)n1
142 to 144 °C

// returns reported melting point for input CC(=O)NC1(c2noc(CCl)n2)CCCC1
74 to 76 °C

Name the recorded melting point for COC(=O)CCc1c(C)nn(-c2ccc(C(=O)O)cc2)c1C .
166 to 175 °C

Look up melting point: Cc1ncc(CO)c(C)n1
52 to 54 °C

Field request: melting point | item: CC(Cl)C(=O)Nc1cc([N+](=O)[O-])ccc1Cl (stereo not drawn)
120 to 122 °C

Please report the recorded melting point for CC(C)(C)c1nn(-c2ccccc2)c(Cl)c1C=O .
34 to 36 °C

Could you share which melting point value was measured for Cc1ccc(C(=O)N2CC(C)CC(C)C2)cc1N (stereo not drawn) ?
154 to 156 °C

Fill in: melting point of O=Cc1cccc(OC(F)(F)C(=O)O)c1 is ___
64 to 66 °C

Would you kindly share the measured melting point for Cc1c(C(=O)O)cc(F)cc1S(=O)(=O)Cl ?
121 to 123 °C

So what's the measured melting point for this one? O=C(O)c1ccnc(SCC(F)(F)F)c1
104 to 106 °C

Request the reported melting point associated with O=C1c2ccccc2C(=O)N1C1CCC(O)CC1 (stereo not drawn)
174 to 176 °C

Could you tell me which melting point is on file for Nc1ccc(OCc2ccco2)c(Cl)c1 ?
72 to 74 °C

Using the record for NC(=O)CCc1nnc(S)n1Cc1ccco1 , report its melting point.
204 to 206 °C

Given CCOC(=O)c1ccc2c(c1)CCCN2 , state its recorded melting point.
79 to 81 °C

# input compound: CC(C(=O)O)N1C(=O)NC2(CCCC2)C1=O (stereo not drawn) ; wanted: its melting point
223 to 225 °C

Suppose we examine the compound Cn1cncc1CO ; what melting point value has been reported?
112 to 114 °C

Query (compound): CC(=O)Nc1ncc(-c2ccc(O)cc2)s1 ; field requested: melting point
218 to 220 °C

# input compound: CC(C)(C)OC(=O)N1CCc2cc(N)ccc21 ; wanted: its melting point
84 to 86 °C

I have this compound here, Nc1ccc(-c2nc(C3CC3)n[nH]2)cc1 , and I need its recorded melting point.
192 to 194 °C

Where do these numbers come from? They come from a melting point compilation (Tetko et al.).
